TGT: T1, human VEGF-A (human, UniProt P15692-4 27-191, limits assumed)
T1 construct: also called huVEGF-A
ASSAY_PROCEDURE: SPR (Biacore), antibody captured by anti-human Fc, VEGF-A injected
RECORDED_ENDPOINT: kon (M⁻¹ s⁻¹)
Report the value in M⁻¹ s⁻¹ with no unit label.

May I ask what kon has been recorded for hBDB-4G8.8 (antibody, V domains shown, Humanized IgG made from pHybE vectors in HEK293 cells) VH: EVQLVQSGAEVKKPGASVKVSCKASGYTFTNYGMYWVRQAPGQGLEWMGWINTETGKPTYADDFKGRVTMTTDTSTSTAYMELRSLRSDDTAVYYCARTNYYYRSYIFYFDYWGQGTMVTVSS VL: ATQLTQSPSLSASVGDRVTITCRASESVSTHMHWYQQKPGKQPKLLIYGASNLESGVPSRFSGSGSGTDFTLTISSLQPEDFATYFCQQSWNDPFTFGQGTKLEIK ?
1.8e+07

Item hBDB-4G8.4 (antibody, V domains shown, Humanized IgG made from pHybE vectors in HEK293 cells) VH: EIQLVQSGSELKKPGASVKVSCKASGYTFTNYGMYWVRQAPGQGLEYMGWINTETGKPTYADDFKGRFVFSLDTSVSTAYLQISSLKAEDTAVYFCARTNYYYRSYIFYFDYWGQGTMVTVSS VL: AIQLTQSPSSLSASVGDRVTITCRASESVSTHMHWYQQKPGKAPKLLIYGASNLESGVPSRFSGSGSGTDFTLTISSLQPEDFATYYCQQSWNDPFTFGQGTKLEIK has what recorded kon?
2.7e+07

Record request: kon value, item hBEW-9E10.4 (antibody, V domains shown, Humanized IgG made from pHybE vectors in HEK293 cells) VH: EIQLVQSGSELKKPGASVKVSCKASGYTFTNYGMYWVKQAPGQGLEYMGWIDTETGRPTYADDFKGRFVFSLDTSVSTAYLQISSLKAEDTAVYFCARWSGDTTGIRGPWFAYWGQGTLVTVSS VL: DIRMTQSPSSLSASVGDRVTITCLASEDIYSDLAWYQQKPGKSPKLLIYNANGLQNGVPSRFSGSGSGTDYTLTISSLQPEDVATYFCQQYNYFPGTFGQGTKLEIK
1.2e+07

What value of kon has been recorded for this entry: hBDB-4G8.10 (antibody, V domains shown, Humanized IgG made from pHybE vectors in HEK293 cells) VH: EIQLVQSGAEVKKPGASVKVSCKASGYTFTNYGMYWVRQAPGQGLEYMGWINTETGKPTYADDFKGRFTFTLDTSTSTAYMELRSLRSDDTAVYFCARTNYYYRSYIFYFDYWGQGTMVTVSS VL: AIQLTQSPSSLSASVGDRVTITCRASESVSTHMHWYQQKPGKAPKLLIYGASNLESGVPSRFSGSGSGTDFTLTISSLQPEDFATYYCQQSWNDPFTFGQGTKLEIK
2.7e+07

So what's the measured kon for this one? hBEW-9A8.21 (antibody, V domains shown, Humanized IgG made from pHybE vectors in HEK293 cells) VH: EIQLVQSGAEVKKPGASVKVSCKASGYTFTNYGMYWVRQAPGQGLEWMGWINTETGKPIYADDFKGRFTFTLDTSTSTAYMELRSLRSDDTAVYYCARVDYDGSFWFAYWGQGTLVTVSS VL: ETVLTQSPATLSLSPGERATLSCRASESVSTVIHWYQQKPGQQPRLLIHGASNLESGVPARFSGSGSGTDFTLTISSLEPEDFAVYFCQQHWNDPPTFGQGTKLEIK
5.8e+06

I am curious: what kon value has been reported for hBEW-9E10.6 (antibody, V domains shown, Humanized IgG made from pHybE vectors in HEK293 cells) VH: EVQLVQSGAEVKKPGSSVKVSCKASGYTFTNYGMYWVRQAPGQGLEWMGWIDTETGRPTYADDFKGRFTFTADKSTSTAYMELSSLRSEDTAVYYCARWSGDTTGIRGPWFAYWGQGTLVTVSS VL: DIRMTQSPSSLSASVGDRVTITCLASEDIYSDLAWYQQKPGKSPKLLIYNANGLQNGVPSRFSGSGSGTDYTLTISSLQPEDVATYFCQQYNYFPGTFGQGTKLEIK ?
1.5e+07

Give its kon value. Item: hBEW-5C3.5 (antibody, V domains shown, Humanized IgG made from pHybE vectors in HEK293 cells) VH: EIQLVQSGAEVKKPGSSVKVSCKASGYTFTNYGVYWVKQAPGQGLEYMGWINTETGKPTYADDFKGRFTFTLDKSTSTAYMELSSLRSEDTAVYFCARARQLDWFVYWGQGTLVTVSS VL: DTQLTQSPSSLSASVGDRVTISCRARESLTTSLSWFQQKPGKQPKLLIYGASKLESGVPSRFSGSGSGTDFTLTISSLQPEDFATYFCQQSWYDPPTFGGGTKVEIK
1.2e+07

Any idea what its kon is? The binder is hBDB-4G8.12 (antibody, V domains shown, Humanized IgG made from pHybE vectors in HEK293 cells) VH: EIQLVQSGAEVKKPGASVKVSCKASGYTFTNYGMYWVRQAPGQGLEYMGWINTETGKPTYADDFKGRFTFTLDTSTSTAYMELRSLRSDDTAVYFCARTNYYYRSYIFYFDYWGQGTMVTVSS VL: DTVLTQSPATLSLSPGERATLSCRASESVSTHMHWYQQKPGQAPRLLIYGASNLESGVPARFSGSGSGTDFTLTISSLEPEDFAVYFCQQSWNDPFTFGQGTKLEIK
2.6e+07

kon lookup needed for hBEW-1B10.2 (antibody, V domains shown, Humanized IgG made from pHybE vectors in HEK293 cells) VH: EVQLVESGGGLVQPGGSLRLSCAASGFSFSKYDMAWFRQAPGKGLEWVASITTSGVGTYYRDSVKGRFTVSRDNAKNSLYLQMNSLRAEDTAVYYCARGYGAMDAWGQGTTVTVSS VL: DIQMTQSPSSLSASVGDRVTITCKASQDIDDYLSWYQQKPGKSPKLVIYAATRLADGVPSRFSGSGSGTDYTLTISSLQPEDFATYYCLQSSSTPWTFGGGTKVEIK , thanks.
7.5e+06

Request the reported kon associated with hBDB-4G8.9 (antibody, V domains shown, Humanized IgG made from pHybE vectors in HEK293 cells) VH: EVQLVQSGAEVKKPGASVKVSCKASGYTFTNYGMYWVRQAPGQGLEWMGWINTETGKPTYADDFKGRVTMTTDTSTSTAYMELRSLRSDDTAVYYCARTNYYYRSYIFYFDYWGQGTMVTVSS VL: DTVLTQSPATLSLSPGERATLSCRASESVSTHMHWYQQKPGQAPRLLIYGASNLESGVPARFSGSGSGTDFTLTISSLEPEDFAVYFCQQSWNDPFTFGQGTKLEIK
1.4e+07
